Test system: KM12
Assay: NCI tumour cell line growth inhibition, 48 h
Activity calls are given as the source filed them. No stated cut-off is given here; in the data, active = GI50 up to about 1.1 µM and inactive = higher. Square brackets hold non-standard residues; d marks the D form. Peptide text beside a SMILES is read from it. * marks the point of attachment. ξ: configuration not given here. NMeN = CN[C@@H](CC(N)=O)C(=O)O; NMeV = CN[C@H](C(=O)O)C(C)C; ξNMeV = CNC(C(=O)O)C(C)C; Boc = CC(C)(C)OC(=O)*; ξNMeA = CNC(C)C(=O)O
For each entry below, report its GI50 value.

Exam item: Dear colleague, I am looking for the recorded GI50 of the following compound: "O=C(/C=C/c1ccc2c(c1)OCO2)Cc1nc2ccccc2[nH]c1=O"
Marked response: 18.9 µM (inactive)

Exam item: Dear colleague, I am looking for the recorded GI50 of the following compound: "O=c1[nH]nc(Cc2ccccc2)[nH]1"
Marked response: > 100 µM (inactive)

Exam item: Dear colleague, I am looking for the recorded GI50 of the following compound: "COc1cc([C@@]23OC[C@@H]4[C@@H](OC[C@@H]42)c2cc4c(cc23)OCO4)cc(OC)c1OC"
Marked response: < 0.01 µM (active)

Exam item: Dear colleague, I am looking for the recorded GI50 of the following compound: O=C(Nc1ccccc1)N(C1=NCC(CI)S1)c1ccc(F)cc1F (stereo not drawn)
Marked response: 45.6 µM (inactive)

Exam item: Dear colleague, I am looking for the recorded GI50 of the following compound: "COc1ccc(C2=N/C(=C\c3ccccc3)C(=O)O2)cc1"
Marked response: 36.6 µM (inactive)

Exam item: Dear colleague, I am looking for the recorded GI50 of the following compound: "Cc1cc2nc3c(N)nn(CCN(C)C)c3nc2cc1C"
Marked response: 45.5 µM (inactive)

Exam item: Dear colleague, I am looking for the recorded GI50 of the following compound: "CN(C)C(=O)/C=C/c1c[nH]c(=O)[nH]c1=O"
Marked response: > 500 µM (inactive)

Exam item: Dear colleague, I am looking for the recorded GI50 of the following compound: "Cc1ccc(NS(=O)(=O)c2cc(C(C)(C)C)ccc2OCCOCCOCCOc2ccc(C(C)(C)C)cc2S(=O)(=O)Nc2ccc(C)cc2)cc1"
Marked response: > 100 µM (inactive)

Exam item: Dear colleague, I am looking for the recorded GI50 of the following compound: "C[n+]1c(/C=C/c2ccc(O)c3ncccc23)[se]c2ccccc21"
Marked response: 2.48 µM (inactive)

Exam item: Dear colleague, I am looking for the recorded GI50 of the following compound: CCC1=NC(CO)[C@H](c2ccccc2)O1 (stereo partly drawn)
Marked response: > 100 µM (inactive)

Exam item: Dear colleague, I am looking for the recorded GI50 of the following compound: "O=C(O)c1cc2cc(OCc3ccccc3)ccc2[nH]1"
Marked response: > 100 µM (inactive)

Exam item: Dear colleague, I am looking for the recorded GI50 of the following compound: "CCCn1cc2c(SC)nc(SC)nc2n1"
Marked response: > 100 µM (inactive)

Exam item: Dear colleague, I am looking for the recorded GI50 of the following compound: "O/N=C1/COC(C(F)(F)F)(C(F)(F)F)C1"
Marked response: > 100 µM (inactive)

Exam item: Dear colleague, I am looking for the recorded GI50 of the following compound: "Cc1ccc(S(=O)(=O)NCCSCCSCCNS(=O)(=O)c2ccc(C)cc2)cc1"
Marked response: 25.6 µM (inactive)

Exam item: Dear colleague, I am looking for the recorded GI50 of the following compound: "ClC1=C(Cc2ccccc2)Cc2ccc3c(c21)CCC3"
Marked response: 18.3 µM (inactive)

Exam item: Dear colleague, I am looking for the recorded GI50 of the following compound: CCCCCCCCCCCc1noc2c1C(=O)C(O)CC2 (stereo not drawn)
Marked response: 22.9 µM (inactive)

Exam item: Dear colleague, I am looking for the recorded GI50 of the following compound: "N=C1N(c2ccccc2)C(=S)/C(=N/c2ccccc2)N1c1ccccc1"
Marked response: 14 µM (inactive)

Exam item: Dear colleague, I am looking for the recorded GI50 of the following compound: "Cc1c[n+]2c3ccccc3c3ccccc3c2s1.[O-][Cl+3]([O-])([O-])[O-]"
Marked response: 1.07 µM (active)

Exam item: Dear colleague, I am looking for the recorded GI50 of the following compound: "O=C1c2ccccc2C(=O)N1CCn1nc(-c2ccccc2)cc(-c2ccccc2)c1=O"
Marked response: > 100 µM (inactive)

Exam item: Dear colleague, I am looking for the recorded GI50 of the following compound: "CCOc1ccc2nc(-c3ccc(O)cc3)sc2c1"
Marked response: 35 µM (inactive)

Exam item: Dear colleague, I am looking for the recorded GI50 of the following compound: "Nc1nc(-c2ccccc2)cc(-c2ccc(F)cc2)c1-c1ccc(Cl)cc1"
Marked response: > 100 µM (inactive)

Exam item: Dear colleague, I am looking for the recorded GI50 of the following compound: COC(=O)C(C)N(C)C(=O)[C@H](CC(N)=O)N(C)C(=O)[C@@H]1CCCN1C(=O)[C@H](C(C)C)N(C)C(=O)C(C(C)C)N(C)C(=O)[C@@H](NC(=O)OC(C)(C)C)C(C)C (stereo partly drawn) (Boc-V[ξNMeV][NMeV]P[NMeN][ξNMeA]-OMe)
Marked response: > 100 µM (inactive)

Exam item: Dear colleague, I am looking for the recorded GI50 of the following compound: "CC1(COS(=O)(=O)OCC2(C)COS(=O)(=O)OC2)COS(=O)(=O)OC1"
Marked response: > 32.7 µM (inactive)

Exam item: Dear colleague, I am looking for the recorded GI50 of the following compound: "CCCCn1c(C)c(C(=O)CC)c(C(=O)NCCN2CCN(c3ccccc3Cl)CC2)c1C"
Marked response: 19.8 µM (inactive)

Exam item: Dear colleague, I am looking for the recorded GI50 of the following compound: "COc1ccc(N2C=Nn3c(nc4sc(C)c(C)c4c3=O)C2)cc1"
Marked response: > 100 µM (inactive)

Exam item: Dear colleague, I am looking for the recorded GI50 of the following compound: CCCCCCCCCCCC(=O)OCC(O)CO (stereo not drawn) [GLYCEROL MONOLAURATE]
Marked response: 20.4 µM (inactive)

Exam item: Dear colleague, I am looking for the recorded GI50 of the following compound: "Cc1nc(-c2nc([N+](=O)[O-])c([N+](=O)[O-])[nH]2)cs1"
Marked response: > 100 µM (inactive)

Exam item: Dear colleague, I am looking for the recorded GI50 of the following compound: "O=C(OCCN=c1c2ccccc2ccc2ccccc12)c1cc([N+](=O)[O-])cc([N+](=O)[O-])c1"
Marked response: > 100 µM (inactive)

Exam item: Dear colleague, I am looking for the recorded GI50 of the following compound: "CCOC(=O)c1cc(C(=O)c2ccccc2)n2nc(-c3ccc(Cl)cc3)ccc12"
Marked response: 20 µM (inactive)

Exam item: Dear colleague, I am looking for the recorded GI50 of the following compound: CCOC1=NC(C(F)(F)F)(C(F)(F)F)N=C(/N=C(/N)N(C)C(C(C)C)P(=O)(OC(C)C)OC(C)C)O1 (stereo not drawn)
Marked response: 78.2 µM (inactive)

Exam item: Dear colleague, I am looking for the recorded GI50 of the following compound: "CN(C)Cc1cc(/N=N/c2ccccc2)ccc1O"
Marked response: 34.6 µM (inactive)

Exam item: Dear colleague, I am looking for the recorded GI50 of the following compound: CNC(C)Cc1ccc(O)cc1 (stereo not drawn)
Marked response: > 100 µM (inactive)

Exam item: Dear colleague, I am looking for the recorded GI50 of the following compound: "Cc1c(-c2ccccc2)c(C#N)c2nnn(-c3ccccc3)c(=O)n12"
Marked response: 75.7 µM (inactive)

Exam item: Dear colleague, I am looking for the recorded GI50 of the following compound: "COc1cc(/C=C2\N=C(c3ccccc3)N(c3ccc(S(=O)(=O)Nc4nccs4)cc3)C2=O)ccc1O"
Marked response: > 100 µM (inactive)

Exam item: Dear colleague, I am looking for the recorded GI50 of the following compound: "CN(C)/C(=N\C#N)N(Cc1ccccc1)Cc1ccccc1"
Marked response: > 100 µM (inactive)

Exam item: Dear colleague, I am looking for the recorded GI50 of the following compound: COC1=CC23C=CC1[C@@H](c1ccccc1)C2=C(C)C(=O)N3C(=O)NC1CCCCC1 (stereo partly drawn)
Marked response: 31.3 µM (inactive)

Exam item: Dear colleague, I am looking for the recorded GI50 of the following compound: C=CCCCC1CCCNC1=S (stereo not drawn)
Marked response: > 100 µM (inactive)

Exam item: Dear colleague, I am looking for the recorded GI50 of the following compound: [N-]=[N+]=NC(c1cn(C2CC(O)C(CO)O2)c(=O)[nH]c1=O)C(Br)I (stereo not drawn)
Marked response: > 100 µM (inactive)

Exam item: Dear colleague, I am looking for the recorded GI50 of the following compound: COCOc1c(C(O[Si](C)(C)C(C)(C)C)c2cnc(Sc3ccccc3)n2C)ccc(OC)c1OC (stereo not drawn)
Marked response: 1.92 µM (inactive)

Exam item: Dear colleague, I am looking for the recorded GI50 of the following compound: "CCCCN(CCCC)C(=O)C(=O)CC(=O)/C=C/c1ccccc1"
Marked response: > 100 µM (inactive)

Exam item: Dear colleague, I am looking for the recorded GI50 of the following compound: "CC(C)=CCC[C@@H](C)C1=C(N)C(=O)C(C)=C(O)C1=O"
Marked response: 32.7 µM (inactive)

Exam item: Dear colleague, I am looking for the recorded GI50 of the following compound: C=CCNC(=O)NNC(O)(C(=O)OCC)C(F)(F)F (stereo not drawn)
Marked response: > 100 µM (inactive)

Exam item: Dear colleague, I am looking for the recorded GI50 of the following compound: OC1CN2CCS[C@H]2C(O)C1O (stereo partly drawn)
Marked response: > 100 µM (inactive)
